Cited source for all entries: patent US20250313612A1

Target: RSV F protein of recombinant mKate-RSV, subtype B (18537) (Respiratory syncytial virus subtype B …, UniProt P13843 26-574)
Test: cell-based or functional assay
Catalogue of Neut IC50 subtype B values
Lab book: enter the figure in µg/mL, no units written.

A selection of reference data follows.
[
  {
    "Binder": "ADI-14448 (antibody, V domains shown) VH: EVQLVESGGGLVKPGGSLRLSCAASGSSFRYSYMSWVRQAPGKGLQWVASISPSSTYTDYADSVKGRSTISRDHDKISLQVNSLRGDDTAVYYCVRHMNLVMGPFAFDIWGRGTMVTVSS VL: QSVVTQPPSLSGAPGQRITISCTGSSSNIGAGYDVNWYQQLPGTAPKLLIYAKTNRPSGVPERFSGSESGTSASLAITGLQPEDEADYYCQSYDRIGMYVFGTGTKLTVL",
    "Neut IC50 subtype B, µg/mL": 0.066
  },
  {
    "Binder": "ADI-14442 (antibody, V domains shown) VH: QVQLVQSGSEVKKPGASVKVSCKASGYRFSNYGISWVRQAPGQGLEWMGWISAYNGNIKYGNNLQGRVTVTTDTSTATAYMEVRSLTSDDTAVYYCARDVPADGVHFMDVWGQGTLVTVSS VL: EIVMTQSPLSLPVTLGQPASISCRSSQSLVHSDTNTYLNWFQQRPGQSPRRLIYKVSNRDSGVPDRFSGSGSGTTFTLKISRVEAEDVGIYYCMQGSHWAPTFGQGTKVEIK",
    "Neut IC50 subtype B, µg/mL": 0.015
  },
  {
    "Binder": "ADI-14455 (antibody, V domains shown) VH: QVQLVQSGAEVKKPGASVKVSCKASGYTFTSYGTSWVRQAPGQGLEWMGWISAYNGNTNYAQNLQGRVTMTTDTSTSTSYMELRSLRSDDTAVYYCARDVPVIAAGTMDYWGQGTLVTVSS VL: DIVMTQTPLSLPVTLGQPASISCRSSQSLVYSDGNTYLNWFQQRPGQSPRRLIYKVSNRDSGVPDRFSGSGSGTDFTLKISRVEAEDVGVYYCMQGPHWPRTFGQGTKVEIK",
    "Neut IC50 subtype B, µg/mL": 0.036
  },
  {
    "Binder": "ADI-14447 (antibody, V domains shown, full-length IgG (yeast-expressed); also called Antibody Number 10; Ab# 10) VH: QVQLVQSGAEMKKPGSSVTVSCKASGVPFTSYTYSWVRQAPGQGLEWMGRVLPVIGSAKYPQKFQGTVTITADKSTSTIYLQLSSLRPEDTAIYFCAGSLLAGYDREFDSWGQGTLVTVSS VL: DIQMTQSPSSLSASVGDRITITCRASQGISNWLAWYQQKPGKAPKSLIYEASTLQSGVSSRFSGSGSGTHFTLTIASLQPEDFATYYCQQYYIYPLTFGGGTKLEIK",
    "Neut IC50 subtype B, µg/mL": 0.372
  },
  {
    "Binder": "ADI-14514 (antibody, V domains shown) VH: QVQLVQSGSEVKKPGASVTVSCKASGYRFSNYGVSWVRQAPGQGLEWMGWISAYNGNTKYGNSLQGRVTLTTDTTTAYMEVRSLTSDDTAVYYCARDVPGDGVHFMDVWGKGTTVTVSS VL: EIVMTQSPLSLPVTLGQSASISCRSSQSLVHSDTNTYLTWFQQRPGQSPRRLIYKVSHRDSGVPDRFSGSGSGTTFTLKISRVEAEDVGIYYCMEGSHWAPTFGQGTKVEIK",
    "Neut IC50 subtype B, µg/mL": 0.074
  }
]

Query: Dear colleague, please send me the reported Neut IC50 subtype B for ADI-14489 (antibody, V domains shown) VH: QVQLVQSGSEVKKPGASVKVSCKASGYRFSNYGISWVRQAPGQGLEWMGWISAYNGNIKYGNNLQGRVTVTTDTSTTTAYMEVRSLTSDDTAVYYCARDVPADGVHFMDVWGKGTTVTVSS VL: DIVMTQTPLSLPVTLGQPASISCRSSQSLVHSDTNTYLNWFQQRPGQSPRRLIYKVSNRDSGVPDRFSGSGSGTTFTLKISRVEAEDVGIYYCMQGSHWAPTFGQGTKVEIK when you can.
Reply: 0.021

Query: Dear colleague, please send me the reported Neut IC50 subtype B for ADI-14443 (antibody, V domains shown, full-length IgG (yeast-expressed); also called Antibody Number 6; Ab# 6) VH: QVQLVQSGTEVKKPGSSVKVSCKASGGTFGSYAVIWVRQAPGQGLEWMGHFIPVFATTNKAQKFQGRLTLSTDESTGTVYMELSSLRSEDTAVYFCATKRYCSDPSCHGLWYFDLWGRGTLVTVSS VL: DIQLTQSPLSLPVTPGEPASISCRSSQSLLDSDDGNTYLDWYLQKPGQSPQVLIYMLSYRASGVPDRFSGSGSGTDFTLEISRVEAEDVGVYYCMQRVEFPYTFGQGTKLEIK when you can.
Reply: 0.063

Query: Dear colleague, please send me the reported Neut IC50 subtype B for ADI-14495 (antibody, V domains shown, full-length IgG (yeast-expressed); also called Antibody Number 56; Ab# 56) VH: QITLKESGPTLVKPTQTLTLTCSFSGFSLTTRGVGVGWVRQPPGKALECLGFVYWDDDKRYSPSLRSRLTISEDTSKNQVVLTMTNMDPLDTATYYCVHSDLYDRGGYYLFYFDYWGQGTLVTVSS VL: DIVLTQSPSSLSASVGDRVTITCRASQPIASYLNWYQHKPGKAPKLLIYAASSLQSGVSSTFSGRGSGTDFTLTITALQPEDFAIYYCQQSYTFPYTFGQGTKVDIK when you can.
Reply: 17.4

Query: Dear colleague, please send me the reported Neut IC50 subtype B for ADI-14465 (antibody, V domains shown) VH: QVQLLESGAGLLKPSETLSLTCSLSGGSFRDFYWAWIRQAPGRGLEWIGDINDGGNTNHSPSLKSRAILSIDASKRQFSLRLTSVTAADTAVYYCARQRLEHTASGYYMDVWGNGTTVTVSS VL: QSVLTQPPSVSVDPGETATITCGGANIGSKNVYWYQQRPGQAPVLVVYDDIDRPAGIPDRFTDSSSGNTVTLTIYSVEAVDEADYFCQVWDNSSDQPVFGGGTKLTVL when you can.
Reply: 0.124

Query: Dear colleague, please send me the reported Neut IC50 subtype B for ADI-14524 (antibody, V domains shown, full-length IgG (yeast-expressed); also called Antibody Number 84; Ab# 84) VH: EVQLVESGGGLVQPGGSLRLSCAASGFSFSDYSMNWVRQAPGKGLEWVSYITPSSRNKFYADSVRGRFTISRDNAENSLYLQMNSLRVEDTAVYYCVRSLHWGAAIERWDVWGQGTTVTVSS VL: EIVLTQSPGTLSLSPGERATLSCRASQSISSSFFAWYQQTPGQAPRLLMYATSSRATGIPDRFSGSGSGTDFTLTISRVEPEDFAVYYCQQSGSSPYTFGQGTKVEIK when you can.
Reply: 6
